# TARGET_DESC: ACVR1 (human) (UniProt Q04771)
# Sequence (Q04771 whole entry, looked up): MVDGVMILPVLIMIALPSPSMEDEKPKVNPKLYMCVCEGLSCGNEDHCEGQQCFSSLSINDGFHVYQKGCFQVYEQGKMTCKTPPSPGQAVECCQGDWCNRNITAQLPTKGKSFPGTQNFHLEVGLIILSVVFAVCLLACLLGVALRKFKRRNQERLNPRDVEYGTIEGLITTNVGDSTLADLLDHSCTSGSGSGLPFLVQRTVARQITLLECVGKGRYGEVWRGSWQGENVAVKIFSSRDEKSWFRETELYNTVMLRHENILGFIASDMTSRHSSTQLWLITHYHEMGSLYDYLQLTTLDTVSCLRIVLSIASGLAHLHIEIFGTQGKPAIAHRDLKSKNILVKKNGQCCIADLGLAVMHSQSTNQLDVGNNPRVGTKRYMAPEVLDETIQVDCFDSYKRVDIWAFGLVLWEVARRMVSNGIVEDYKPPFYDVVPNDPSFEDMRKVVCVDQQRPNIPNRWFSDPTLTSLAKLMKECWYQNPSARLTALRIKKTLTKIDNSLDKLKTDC
# ASSAY_COMMENT: KINOMEscan competition binding
# EXPERIMENTAL_SETUP: compound 10.0 µM
RESULT_TYPE: kinase still bound, per cent of control (%)
Please reply with the bare figure in % and do not write the unit itself.

{"SMILES": "N=C1NC(=O)/C(=C/c2ccc(-c3cncc4ccccc34)o2)S1", "TARGET_DESC": "ACVR1 (human) (UniProt Q04771)", "kinase still bound, per cent of control, %": 0.5}

May I ask what kinase still bound, per cent of control has been recorded for `O=C1NC(=S)S/C1=C\c1ccc(-c2cncc3ccccc23)o1` ?
14

Can you look up the measured kinase still bound, per cent of control of `CN1C(=O)[C@H]2CCC[C@H]2N(C2CCCC2)c2nc(Nc3ccc4ncccc4c3)ncc21` for me?
16

Item `CS(=O)(=O)Nc1ccc(-c2cncc(/C=C3\SC(=N)NC3=O)c2)cc1` has what recorded kinase still bound, per cent of control?
1.8

If you can, please state the reported kinase still bound, per cent of control value of `COc1cc(N2CCC(O)CC2)ccc1Nc1ncc2c(n1)N1CCc3cccc(c31)C(=O)N2C` .
95

Item under review: `N=C1NC(=O)/C(=C/c2c[nH]c(=O)c(-c3ccc(N4CCNCC4)nc3)c2)S1` . Reported kinase still bound, per cent of control?
29

Suppose we examine the molecule `CN1C(=O)c2ccccc2N(C)c2nc(Nc3ccc(N4CCC(O)CC4)cn3)ncc21` ; what kinase still bound, per cent of control value has been reported?
29

Look at this molecule and give its reported kinase still bound, per cent of control. `O=C1NC(=O)/C(=C/c2c[nH]c(=O)c(-c3ccc(N4CCNCC4)nc3)c2)S1`
20

Fill blank: measured kinase still bound, per cent of control of the molecule `CS(=O)(=O)Nc1ccc(-c2cc(/C=C3\SC(=N)NC3=O)c[nH]c2=O)cc1` is ____.
27

Entry `COc1cc(N2CCN(C)CC2)ccc1Nc1ncc2c(n1)N(C)c1sccc1C(=O)N2C` has what kinase still bound, per cent of control?
94

Give the measured kinase still bound, per cent of control of `CN1C(=O)c2ccccc2N(C)c2nc(NS(=O)(=O)c3ccc(N)cc3)ncc21` .
100

Recorded kinase still bound, per cent of control for `COc1cc(N2CCN(C)CC2)ccc1Nc1ncc2c(n1)Nc1ccccc1NC2=O` , please?
37

I am curious: what kinase still bound, per cent of control value has been reported for `CN1C(=O)c2ccccc2N(C)c2nc(Nc3ccc(N4CCC(O)CC4)cc3)ncc21` ?
88

Return reported kinase still bound, per cent of control; argument: `COc1cc(N2CCN(C)CC2)ccc1Nc1ncc2c(n1)N(C)c1ccccc1N(C)C2=O`
100

I am curious: what kinase still bound, per cent of control value has been reported for `CN1CCN(c2ccc(C(=O)Nc3ncc4c(n3)N(C)c3ccccc3C(=O)N4C)cc2)CC1` ?
91

---

kinase still bound, per cent of control for assorted molecules
# TARGET_DESC: PTK2 (human) (UniProt Q05397)
# Sequence (Q05397 whole entry, looked up): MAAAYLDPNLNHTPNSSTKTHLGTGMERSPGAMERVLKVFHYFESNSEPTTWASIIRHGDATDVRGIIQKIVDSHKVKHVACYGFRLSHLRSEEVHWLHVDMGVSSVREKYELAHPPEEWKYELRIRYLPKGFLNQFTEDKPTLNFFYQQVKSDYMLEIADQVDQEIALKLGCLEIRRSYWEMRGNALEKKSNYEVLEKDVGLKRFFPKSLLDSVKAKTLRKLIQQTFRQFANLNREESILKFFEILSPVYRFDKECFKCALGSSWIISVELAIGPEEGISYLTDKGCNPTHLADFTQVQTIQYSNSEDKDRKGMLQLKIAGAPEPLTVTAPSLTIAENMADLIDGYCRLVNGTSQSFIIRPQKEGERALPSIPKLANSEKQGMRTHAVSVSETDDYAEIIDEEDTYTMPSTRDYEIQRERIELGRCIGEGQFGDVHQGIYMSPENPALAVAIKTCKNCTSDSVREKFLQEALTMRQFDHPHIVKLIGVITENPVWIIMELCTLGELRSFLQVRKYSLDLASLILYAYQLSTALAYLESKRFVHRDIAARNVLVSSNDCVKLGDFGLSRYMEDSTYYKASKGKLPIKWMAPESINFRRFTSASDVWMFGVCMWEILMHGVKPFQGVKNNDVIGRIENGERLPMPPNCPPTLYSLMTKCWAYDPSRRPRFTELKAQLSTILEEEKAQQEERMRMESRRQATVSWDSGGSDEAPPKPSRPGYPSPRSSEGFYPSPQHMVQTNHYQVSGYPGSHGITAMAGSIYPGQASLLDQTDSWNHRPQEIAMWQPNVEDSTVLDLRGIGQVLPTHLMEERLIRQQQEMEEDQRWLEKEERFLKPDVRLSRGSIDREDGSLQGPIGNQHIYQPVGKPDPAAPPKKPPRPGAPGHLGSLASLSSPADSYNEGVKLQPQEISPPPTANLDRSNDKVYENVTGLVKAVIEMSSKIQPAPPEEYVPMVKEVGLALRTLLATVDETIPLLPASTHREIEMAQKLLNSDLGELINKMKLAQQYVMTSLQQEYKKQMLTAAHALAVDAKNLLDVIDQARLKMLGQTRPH
# ASSAY_COMMENT: KINOMEscan competition binding
# EXPERIMENTAL_SETUP: compound 10.0 µM
Answer in %, number only, no unit symbol.

Worked cases, answers included:
{"MOLECULE": "CN1CCN(c2ccc(C(=O)Nc3ncc4c(n3)N(C)c3ccccc3C(=O)N4C)cc2)CC1", "RESULT_TYPE": "kinase still bound, per cent of control", "RESULT": 100}
{"MOLECULE": "COc1cc(C(=O)NC2CCN(C)CC2)ccc1Nc1ncc2c(n1)N(C1CCCC1)CC(C)C(=O)N2C (centres undefined)", "RESULT_TYPE": "kinase still bound, per cent of control", "RESULT": 17}
{"MOLECULE": "COc1cc(N(C)CCCO)ccc1Nc1ncc2c(n1)N(C1CCCC1)CCC(=O)N2C", "RESULT_TYPE": "kinase still bound, per cent of control", "RESULT": 16}
{"MOLECULE": "O=C1NC(=S)S/C1=C\\c1ccc(-c2cncc3ccccc23)o1", "RESULT_TYPE": "kinase still bound, per cent of control", "RESULT": 28}
{"MOLECULE": "COc1cc(N2CCN(C)CC2)ccc1Nc1ncc2c(n1)N(C)c1ccccc1C(=O)N2C", "RESULT_TYPE": "kinase still bound, per cent of control", "RESULT": 16}
{"MOLECULE": "O=C1NC(=O)/C(=C/c2c[nH]c(=O)c(-c3ccc(N4CCNCC4)nc3)c2)S1", "RESULT_TYPE": "kinase still bound, per cent of control", "RESULT": 79}
{"MOLECULE": "COc1cc(N2CCN(C)CC2)ccc1Nc1ncc2c(n1)N(C)c1sccc1C(=O)N2C", "RESULT_TYPE": "kinase still bound, per cent of control", "RESULT": 13}
{"MOLECULE": "COc1cc(N2CCC(N3CCN(C)CC3)CC2)ccc1Nc1ncc2c(n1)N(C1CCCC1)C(C)CC(=O)N2 (centres undefined)", "RESULT_TYPE": "kinase still bound, per cent of control", "RESULT": 7.1}

API: the following record is the query input.
Given the entry `CCOc1cc(N2CCC(O)CC2)ccc1Nc1ncc2c(n1)N(C1CCCC1)CCC(=O)N2C` , what kinase still bound, per cent of control was observed with PTK2 (human) (UniProt Q05397)?
24

---

Reported kinase still bound, per cent of control values for the following compounds.
# TARGET_DESC: STK4 (human)
# ASSAY_COMMENT: KINOMEscan competition binding
# EXPERIMENTAL_SETUP: compound 10.0 µM
Provide the reading as a plain figure in %.

{"SMILES": "CN1C(=O)c2ccccc2N(C)c2nc(Nc3ccc(N4CCC(O)CC4)cc3)ncc21", "kinase still bound, per cent of control [%]": 80}
{"SMILES": "COc1cc(N2CCN(C)CC2)ccc1Nc1ncc2c(n1)Nc1ccccc1NC2=O", "kinase still bound, per cent of control [%]": 100}
{"SMILES": "O=C1NC(=O)/C(=C/c2c[nH]c(=O)c(-c3ccc(N4CCNCC4)nc3)c2)S1", "kinase still bound, per cent of control [%]": 96}
{"SMILES": "CN1C(=O)c2ccccc2N(C)c2nc(NS(=O)(=O)c3ccc(N)cc3)ncc21", "kinase still bound, per cent of control [%]": 71}

Reported kinase still bound, per cent of control for STK4 (human), given `COc1cc(N2CCN(C)CC2)ccc1Nc1ncc2c(n1)N(C)c1ccccc1N(C)C2=O` ?
100

---

# TARGET_DESC: DCLK2 (human) (UniProt Q8N568)
# Sequence (Q8N568 whole entry, looked up): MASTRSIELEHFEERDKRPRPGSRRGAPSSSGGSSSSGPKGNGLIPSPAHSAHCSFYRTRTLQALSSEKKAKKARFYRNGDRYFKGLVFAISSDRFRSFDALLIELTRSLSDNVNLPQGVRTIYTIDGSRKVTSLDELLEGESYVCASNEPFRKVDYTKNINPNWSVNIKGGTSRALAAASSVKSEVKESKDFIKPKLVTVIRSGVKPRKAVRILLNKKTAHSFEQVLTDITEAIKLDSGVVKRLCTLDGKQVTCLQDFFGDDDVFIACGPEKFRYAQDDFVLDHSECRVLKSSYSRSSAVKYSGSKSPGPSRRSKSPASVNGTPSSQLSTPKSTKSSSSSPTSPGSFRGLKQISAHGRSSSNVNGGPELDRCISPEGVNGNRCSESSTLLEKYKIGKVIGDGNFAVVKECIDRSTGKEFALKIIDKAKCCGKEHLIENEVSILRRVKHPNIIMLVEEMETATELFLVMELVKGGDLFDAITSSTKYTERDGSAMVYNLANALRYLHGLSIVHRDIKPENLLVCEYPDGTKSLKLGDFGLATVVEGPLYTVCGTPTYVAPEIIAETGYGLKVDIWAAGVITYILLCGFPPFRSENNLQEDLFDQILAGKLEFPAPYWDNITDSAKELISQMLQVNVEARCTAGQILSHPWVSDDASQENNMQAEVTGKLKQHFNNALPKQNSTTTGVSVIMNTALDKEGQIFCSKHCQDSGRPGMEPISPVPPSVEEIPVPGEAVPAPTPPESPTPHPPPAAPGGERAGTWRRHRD
# ASSAY_COMMENT: KINOMEscan competition binding
# EXPERIMENTAL_SETUP: compound 10.0 µM
Kindly apply the following: True if kinase still bound, per cent of control is less than 30%, False in every other case.

{"MOLECULE": "COc1cc(N2CCN(C)CC2)ccc1Nc1ncc2c(n1)N(C)c1ccccc1N(C)C2=O", "CLASS": "False"}
{"MOLECULE": "COc1cc(C(N)=O)ccc1Nc1ncc2c(n1)N(C1CCCC1)[C@@H]1CCC[C@@H]1C(=O)N2C", "CLASS": "True"}
{"MOLECULE": "COc1cc(N2CCN(C)CC2)ccc1Nc1ncc2c(n1)Nc1ccccc1NC2=O", "CLASS": "False"}
{"MOLECULE": "COc1cc(N2CCN(C)CC2)ccc1Nc1ncc2c(n1)N(C(C)C)c1ccccc1C(=O)N2C", "CLASS": "True"}
{"MOLECULE": "COc1cc(N2CCC(O)CC2)ccc1Nc1ncc2c(n1)N(C)c1ccccc1C(=O)N2C", "CLASS": "True"}

Criterion: kinase still bound, per cent of control strictly below 30%. Is it met by CCN1C(=O)CC(C(C)C)N(C2CCCC2)c2nc(Nc3ccc(C(=O)NC4CCN(C)CC4)cc3OC)ncc21 (centres undefined) ?
True

I'd appreciate it if you could check whether `COc1cc(N2CCN(C)CC2)ccc1Nc1ncc2c(n1)N1CCC[C@H]1CC(=O)N2C` has kinase still bound, per cent of control smaller than 30%.
True

Say whether its kinase still bound, per cent of control is strictly beneath 30%. Entry: `COc1cc(C(=O)NC2CCN(C)CC2)ccc1Nc1ncc2c(n1)N(C1CCCC1)[C@@H]1CCC[C@@H]1C(=O)N2C`
True

---

# TARGET_DESC: CDC42BPB (human)
# ASSAY_COMMENT: KINOMEscan competition binding
# EXPERIMENTAL_SETUP: compound 10.0 µM
RESULT_TYPE: kinase still bound, per cent of control

# input compound: `O=C1NC(=S)S/C1=C\c1ccc(-c2cncc3ccccc23)o1` ; wanted: its kinase still bound, per cent of control
30%

// returns reported kinase still bound, per cent of control for input `CN1C(=O)c2ccccc2N(C)c2nc(NS(=O)(=O)c3ccc(N)cc3)ncc21`
100%

Could you share which kinase still bound, per cent of control value was measured for `N=C1NC(=O)/C(=C/c2ccc(-c3csc4ccccc34)o2)S1` ?
32%

Can you share its kinase still bound, per cent of control? I mean this compound: `CN1CCN(c2ccc(C(=O)Nc3ncc4c(n3)N(C)c3ccccc3C(=O)N4C)cc2)CC1`
98%

For the compound `COc1cc(N2CCN(C)CC2)ccc1Nc1ncc2c(n1)Nc1ccccc1NC2=O` , what kinase still bound, per cent of control is on record?
100%

Please give the measured kinase still bound, per cent of control for this compound: `O=C1NC(=O)/C(=C/c2c[nH]c(=O)c(-c3ccc(N4CCNCC4)nc3)c2)S1`
100%

Tell me the measured kinase still bound, per cent of control of `CN1C(=O)c2ccccc2N(C)c2nc(Nc3ccc(N4CCC(O)CC4)cc3)ncc21` , please.
100%
